- Tested on: IL-1β secretion in THP-1 cells (NLRP3)
- PROTOCOL: IL-1β secretion assay in PMA-differentiated THP-1 cells stimulated with LPS and nigericin (ELISA readout)
- Type: cell-based
- SETUP_CONDITIONS: Homo sapiens, THP-1, Table 4, LPS 25 ng/mL + nigericin, IL-1β ELISA, read-out: Activity (IC50)
pIC50: −log10 of the molar value.
This section presents molecules with their documented pIC50 values.
RECORDED_ENDPOINT: pIC50

{"MOLECULE": "O=C(Cn1nc(OC2CC3CC[C@@H]2C3)c2cc(Br)ccc2c1=O)Nc1ncc(F)cn1 (some centres unmarked)", "TARGET": "IL-1β secretion in THP-1 cells (NLRP3)", "READOUT_NUMBER": 6.06}
{"MOLECULE": "O=C(Cn1nc(O[C@H]2C[C@@H](F)C2)c2cc(Br)ccc2c1=O)Nc1ncc(F)cn1", "TARGET": "IL-1β secretion in THP-1 cells (NLRP3)", "READOUT_NUMBER": 6.31}
{"MOLECULE": "O=C(Cn1nc(OC2CC2)c2cc(Br)ccc2c1=O)Nc1nc2ccccn2n1", "TARGET": "IL-1β secretion in THP-1 cells (NLRP3)", "READOUT_NUMBER": 6.63}
{"MOLECULE": "O=C(Cn1nc(OC2C[C@H]2F)c2cc(Br)ccc2c1=O)Nc1ncc(F)cn1 (some centres unmarked)", "TARGET": "IL-1β secretion in THP-1 cells (NLRP3)", "READOUT_NUMBER": 6.31}
{"MOLECULE": "O=C(Cn1nc(OC2CC3(C2)CC(F)(F)C3)c2cc(C3(F)CC3)ccc2c1=O)Nc1ncc(F)cn1", "TARGET": "IL-1β secretion in THP-1 cells (NLRP3)", "READOUT_NUMBER": 7.72}
{"MOLECULE": "CC[C@@H]1CC1Oc1nn(CC(=O)Nc2ncc(F)cn2)c(=O)c2ccc(Br)cc12 (single isomer, unassigned)", "TARGET": "IL-1β secretion in THP-1 cells (NLRP3)", "READOUT_NUMBER": 6.43}
{"MOLECULE": "COc1nn(CC(=O)Nc2ncc(F)cn2)c(=O)c2ccc(C3(F)CC3)cc12", "TARGET": "IL-1β secretion in THP-1 cells (NLRP3)", "READOUT_NUMBER": 6.87}
{"MOLECULE": "O=C(Cn1nc(OC2CC3(CC3)C2)c2cc(Br)ccc2c1=O)Nc1ncc(F)cn1", "TARGET": "IL-1β secretion in THP-1 cells (NLRP3)", "READOUT_NUMBER": 7.48}
